Target: RIOK1 (human) (UniProt Q9BRS2)
Sequence (Q9BRS2 whole entry, looked up): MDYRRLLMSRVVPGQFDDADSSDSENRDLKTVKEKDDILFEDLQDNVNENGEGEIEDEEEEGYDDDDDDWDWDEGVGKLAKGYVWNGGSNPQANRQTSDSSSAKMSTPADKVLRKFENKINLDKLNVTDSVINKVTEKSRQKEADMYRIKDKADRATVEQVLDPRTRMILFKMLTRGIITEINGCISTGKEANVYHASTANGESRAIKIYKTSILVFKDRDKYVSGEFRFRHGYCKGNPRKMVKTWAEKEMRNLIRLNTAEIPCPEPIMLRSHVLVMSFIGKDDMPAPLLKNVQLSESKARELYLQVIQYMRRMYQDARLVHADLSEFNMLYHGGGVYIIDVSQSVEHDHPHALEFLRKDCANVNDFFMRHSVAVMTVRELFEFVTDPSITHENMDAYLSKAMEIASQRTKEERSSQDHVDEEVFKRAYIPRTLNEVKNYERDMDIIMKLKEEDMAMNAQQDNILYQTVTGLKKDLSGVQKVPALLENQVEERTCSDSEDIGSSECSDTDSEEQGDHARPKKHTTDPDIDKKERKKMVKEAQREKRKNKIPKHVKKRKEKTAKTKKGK
Assay: KINOMEscan competition binding
Conditions: compound 10.0 µM
parameter.measured: kinase still bound, per cent of control (%)
One number for each entry, in %.

{"compound": "COc1cc(C)c(Sc2cnc(NC(=O)c3ccc(CNC(C)C(C)C)cc3)s2)cc1C(=O)N1CCN(C(C)=O)CC1 (centres undefined)", "tested.system": "RIOK1 (human) (UniProt Q9BRS2)", "kinase still bound, per cent of control [%]": 100}
{"compound": "N#Cc1cc(-c2ccnc(Nc3ccc(-n4cnc(-c5cccnc5)n4)cc3)n2)cc(N2CCOCC2)c1", "tested.system": "RIOK1 (human) (UniProt Q9BRS2)", "kinase still bound, per cent of control [%]": 3.8}
{"compound": "COc1cc(N2CCC(C(N)=O)CC2)ccc1Nc1nc(N)c(Cl)c(Nc2ccccc2S(=O)(=O)C(C)C)n1", "tested.system": "RIOK1 (human) (UniProt Q9BRS2)", "kinase still bound, per cent of control [%]": 100}
{"compound": "CCCS(=O)(=O)Nc1ccc(F)c(C(=O)c2c[nH]c3ncc(Cl)cc23)c1F", "tested.system": "RIOK1 (human) (UniProt Q9BRS2)", "kinase still bound, per cent of control [%]": 100}
{"compound": "N#C/C(=C1/Nc2ccccc2S1)c1ccnc(NCCc2cccnc2)n1", "tested.system": "RIOK1 (human) (UniProt Q9BRS2)", "kinase still bound, per cent of control [%]": 30}
{"compound": "CCOc1cc(N2CCC(O)CC2)ccc1Nc1ncc2c(n1)N(C)c1ccccc1C(=O)N2C", "tested.system": "RIOK1 (human) (UniProt Q9BRS2)", "kinase still bound, per cent of control [%]": 100}

Could you report kinase still bound, per cent of control for every entry in the following list?
1. CNC(=O)Nc1ccc(-c2nc(N3CC4CCC(C3)O4)c3cnn(C4CCC5(CC4)OCCO5)c3n2)cc1
2. CCN(CCO)CCCOc1ccc2c(Nc3cc(CC(=O)Nc4cccc(F)c4)[nH]n3)ncnc2c1
3. C=CC(=O)Nc1ccc(C(=O)c2sc(Nc3ccc(N4CCN(C)CC4)cc3OC)nc2N)cc1

91
100
37

====

Target: UniProt:O15146
Sequence (O15146 whole entry, looked up): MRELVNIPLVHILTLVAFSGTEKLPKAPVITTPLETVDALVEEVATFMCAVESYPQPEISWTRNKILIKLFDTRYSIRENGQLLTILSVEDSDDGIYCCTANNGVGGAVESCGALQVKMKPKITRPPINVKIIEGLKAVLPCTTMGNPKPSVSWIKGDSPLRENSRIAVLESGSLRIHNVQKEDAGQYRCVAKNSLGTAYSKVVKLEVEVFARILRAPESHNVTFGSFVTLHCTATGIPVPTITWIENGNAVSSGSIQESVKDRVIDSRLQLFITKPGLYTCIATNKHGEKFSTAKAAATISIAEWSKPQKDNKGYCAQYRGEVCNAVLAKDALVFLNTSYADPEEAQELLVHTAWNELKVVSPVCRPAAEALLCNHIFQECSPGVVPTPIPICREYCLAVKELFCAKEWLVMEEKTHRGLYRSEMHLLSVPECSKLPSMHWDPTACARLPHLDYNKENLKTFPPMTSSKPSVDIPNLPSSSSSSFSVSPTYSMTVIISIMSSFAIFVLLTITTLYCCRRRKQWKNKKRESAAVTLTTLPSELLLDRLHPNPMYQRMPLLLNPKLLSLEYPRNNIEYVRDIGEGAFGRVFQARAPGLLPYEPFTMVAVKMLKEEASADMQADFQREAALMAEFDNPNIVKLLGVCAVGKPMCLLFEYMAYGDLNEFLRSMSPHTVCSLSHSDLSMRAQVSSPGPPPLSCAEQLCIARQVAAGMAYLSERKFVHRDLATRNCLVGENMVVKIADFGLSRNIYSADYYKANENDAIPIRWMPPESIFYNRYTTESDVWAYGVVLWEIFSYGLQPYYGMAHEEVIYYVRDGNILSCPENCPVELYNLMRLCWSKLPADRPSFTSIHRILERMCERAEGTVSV
Test: KINOMEscan competition binding
Conditions: compound 10.0 µM
parameter.measured: kinase still bound, per cent of control (%)
Numbers only, in %.

// known answers, use as guide
{"compound": "CCc1nc(-c2cccc(C)c2)c(-c2ccnc(NC(=O)c3ccccc3)c2)s1", "tested.system": "UniProt:O15146", "kinase still bound, per cent of control / %": 100}
{"compound": "CCN(CCO)CCCOc1ccc2c(Nc3cc(CC(=O)Nc4cccc(F)c4)[nH]n3)ncnc2c1", "tested.system": "UniProt:O15146", "kinase still bound, per cent of control / %": 3.3}
{"compound": "COc1cc(C)c(Sc2cnc(NC(=O)c3ccc(CNC(C)C(C)C)cc3)s2)cc1C(=O)N1CCN(C(C)=O)CC1 (configuration not stated)", "tested.system": "UniProt:O15146", "kinase still bound, per cent of control / %": 0.2}
{"compound": "COc1cc2c(Nc3ccc(NC(=O)c4ccccc4)cc3)ncnc2cc1OCCCN1CCOCC1", "tested.system": "UniProt:O15146", "kinase still bound, per cent of control / %": 100}

I'm hoping you can list kinase still bound, per cent of control for every compound here, please.
1. COc1cc2ncnc(Nc3cccc(Cl)c3)c2cc1OC
2. N#C/C(=C1/Nc2ccccc2S1)c1ccnc(NCCc2cccnc2)n1
3. CCOc1cc(N2CCC(O)CC2)ccc1Nc1ncc2c(n1)N(C)c1ccccc1C(=O)N2C
4. COc1ccc(N(C(=O)Oc2cc(C(=O)Nc3cccc(C(F)(F)F)c3)ccc2C)c2ccnc(Nc3ccc(N4CCN(C)CC4)cc3)n2)c(OC)c1
5. CNC(=O)Nc1ccc(-c2nc(N3CC4CCC(C3)O4)c3cnn(C4CCC5(CC4)OCCO5)c3n2)cc1
6. COc1cc(N2CCC(C(N)=O)CC2)ccc1Nc1nc(N)c(Cl)c(Nc2ccccc2S(=O)(=O)C(C)C)n1
7. CC1=C(C(=O)Nc2cc3cn[nH]c3cc2F)C(c2ccc(C(F)(F)F)cc2)CC(=O)N1 (configuration not stated)

1. 100
2. 100
3. 100
4. 20
5. 92
6. 100
7. 95

State the recorded kinase still bound, per cent of control for every item in the following list.
1. CCCS(=O)(=O)Nc1ccc(F)c(C(=O)c2c[nH]c3ncc(Cl)cc23)c1F
2. Cc1cn(-c2cc(C(=O)Nc3ccc(C)c(NC(=O)c4ccno4)c3)cc(C(F)(F)F)c2)cn1
3. O=c1[nH]c2ccccc2n1C1CCN(Cc2ccc(-c3nc4cc5[nH]cnc5cc4nc3-c3ccccc3)cc2)CC1

1: 71; 2: 100; 3: 100

Report kinase still bound, per cent of control for every entry below.
1. N#Cc1cc(-c2ccnc(Nc3ccc(-n4cnc(-c5cccnc5)n4)cc3)n2)cc(N2CCOCC2)c1
2. C=CC(=O)Nc1ccc(C(=O)c2sc(Nc3ccc(N4CCN(C)CC4)cc3OC)nc2N)cc1
3. CCN1CCN(Cc2ccc(NC(=O)c3ccc(C)c(/C=C/c4cnc5[nH]ccc5c4OC)c3)cc2C(F)(F)F)CC1

1: 92; 2: 100; 3: 0
